- Tested on: NCI-H1915
- procedure-text: relative viability (nuclei count vs DMSO), 5 days (fraction); higher = more cells survive
- run-conditions: first compound 0.1581 µM
metric: relative viability
Format: numeric value only, no unit, no commentary.

Bench note: what relative viability did COc1cc2nccc(Oc3ccc(NC(=O)Nc4cc(C)on4)c(Cl)c3)c2cc1OC [Tivozanib] + CCNC(=O)c1noc(-c2cc(C(C)C)c(O)cc2O)c1-c1ccc(CN2CCOCC2)cc1 [Luminespib] (partner 0.01 µM) show? 0.799

* * *

- Tested on: NCI-H1993
- procedure-text: relative viability (nuclei count vs DMSO), 5 days (fraction); higher = more cells survive
- run-conditions: first compound 0.253 µM
metric: relative viability
Write the number on its own, no unit after it.

Endpoint output: relative viability of O=c1[nH]c2ccccc2n1C1CCN(CCCC(c2ccc(F)cc2)c2ccc(F)cc2)CC1 [Pimozide] + CC(C)C[C@H](NC(=O)[C@H](Cc1ccccc1)NC(=O)c1cnccn1)B(O)O [Bortezomib] (partner 0.002 µM) . Value? 1.03

relative viability lookup needed for O=c1[nH]c2ccccc2n1C1CCN(CCCC(c2ccc(F)cc2)c2ccc(F)cc2)CC1 [Pimozide] + CCNC(=O)c1noc(-c2cc(C(C)C)c(O)cc2O)c1-c1ccc(CN2CCOCC2)cc1 [Luminespib] (partner 0.01 µM) , thanks. 0.809

Which relative viability is reported for this compound? Cc1cnc(-c2cnc(NCCNc3ccc(C#N)cn3)nc2-c2ccc(Cl)cc2Cl)[nH]1 + Nc1ncn([C@H]2C[C@H](O)[C@@H](CO)O2)c(=O)n1 [Decitabine] (partner 2 µM) 0.584

relative viability lookup needed for O=c1[nH]c2ccccc2n1C1CCN(CCCC(c2ccc(F)cc2)c2ccc(F)cc2)CC1 [Pimozide] + N=C(N)NC(=N)NCCc1ccccc1 [Phenformin] (partner 250 µM) , thanks. 0.509

* * *

- Test system: NCI-H1734
- procedure-text: relative viability (nuclei count vs DMSO), 5 days (fraction); higher = more cells survive
- run-conditions: first compound 0.05 µM
metric: relative viability
Give the figure by itself; no unit, no explanation.

What does the data say about its relative viability? Entry: COc1cc2nccc(Oc3ccc(NC(=O)Nc4cc(C)on4)c(Cl)c3)c2cc1OC [Tivozanib] + CS(=O)(=O)N1CCN(Cc2cc3nc(-c4cccc5[nH]ncc45)nc(N4CCOCC4)c3s2)CC1 [Pictilisib] (partner 1 µM) 0.456

* * *

- Test system: 201T
- procedure-text: relative viability (nuclei count vs DMSO), 5 days (fraction); higher = more cells survive
- run-conditions: first compound 0.005 µM
The compounds listed here are annotated with their relative viability.
Reply with the value as a number alone.

Nc1ccn([C@@H]2O[C@H](CO)[C@@H](O)[C@@H]2O)c(=O)n1 [Cytarabine] + CC(=O)Nc1cccc(-n2c(=O)n(C3CC3)c(=O)c3c(Nc4ccc(I)cc4F)n(C)c(=O)c(C)c32)c1 [Trametinib] (partner 0.02 µM)    0.728

Here's the next entry for you.
Need relative viability of COc1cc2nccc(Oc3ccc(NC(=O)Nc4cc(C)on4)c(Cl)c3)c2cc1OC [Tivozanib] + CC(C)C[C@H](NC(=O)[C@H](Cc1ccccc1)NC(=O)c1cnccn1)B(O)O [Bortezomib] (partner 0.002 µM) , thanks. 1.11

* * *

- System: UMC-11
- procedure-text: relative viability (nuclei count vs DMSO), 5 days (fraction); higher = more cells survive
- run-conditions: first compound 1.265 µM
metric: relative viability
// response body must contain only the number

Cc1sc2c(c1C)C(c1ccc(Cl)cc1)=N[C@@H](CC(=O)OC(C)(C)C)c1nnc(C)n1-2 [JQ1] + Nc1nc2[nH]cc(CCc3ccc(C(=O)N[C@@H](CCC(=O)O)C(=O)O)cc3)c2c(=O)[nH]1 [Pemetrexed] (partner 0.2 µM)    0.254

Query molecule follows.
Reported relative viability for Cc1sc2c(c1C)C(c1ccc(Cl)cc1)=N[C@@H](CC(=O)OC(C)(C)C)c1nnc(C)n1-2 [JQ1] + CC(C)C[C@H](NC(=O)[C@H](Cc1ccccc1)NC(=O)c1cnccn1)B(O)O [Bortezomib] (partner 0.002 µM) : what is it? 0.216

FYI, the data here is from the supplement of paper PMC10307832.
